# TESTED SYSTEM: HLA-A*33:01
# ASSAY REMARKS: IEDB peptide-MHC binding, purified MHC/competitive/radioactivity; filed as Kd, often an IC50 or EC50 that approximates it; bounds were set here for any values at or beyond the usual limits of such assays
# CONDITION CONTEXT: source organism: Dengue virus 3 Sri Lanka/1266/2000
RESULT TYPE: pKd
pKd here is simply -log10 of the concentration when that concentration is written in mol/L.

EITAEWLWR yielded pKd of 7.94

---

Each entry below carries its recorded Kd.
# TESTED SYSTEM: HLA-B*40:01
# ASSAY REMARKS: IEDB peptide-MHC binding, purified MHC/direct/fluorescence; filed as Kd, often an IC50 or EC50 that approximates it; bounds were set here for any values at or beyond the usual limits of such assays
# CONDITION CONTEXT: source organism: Coxiella burnetii

> print(dat)
   sequence.code  tested.system  value.reported
1      YYYNFSEDL    HLA-B*40:01         ≥ 20 µM

Let's switch to this sequence now.
WAPEGDIRL yielded Kd of ≥ 20 µM

---

# TESTED SYSTEM: HLA-B*40:01
# ASSAY REMARKS: IEDB peptide-MHC binding, purified MHC/competitive/radioactivity; filed as Kd, often an IC50 or EC50 that approximates it; bounds were set here for any values at or beyond the usual limits of such assays
# CONDITION CONTEXT: source organism: Dengue virus 4 Philippines/H241/1956
Each entry below carries its recorded pKd.
pKd here is simply -log10 of the concentration when that concentration is written in mol/L.

Solved cases below.
> print(dat)
   sequence.code  tested.system  result.type  value.reported
1      KEKVVGRII    HLA-B*40:01          pKd            5.54
2      VEMGEAAAI    HLA-B*40:01          pKd            6.87
3     WELVDKERAL    HLA-B*40:01          pKd            7.62

Let's switch to this sequence now.
LEPPFGDSYI yielded pKd of 5.19

---

Each entry below carries its recorded Kd.
# TESTED SYSTEM: HLA-A*69:01
# ASSAY REMARKS: IEDB peptide-MHC binding, purified MHC/competitive/fluorescence; filed as Kd, often an IC50 or EC50 that approximates it; bounds were set here for any values at or beyond the usual limits of such assays
# CONDITION CONTEXT: source organism: Zaire ebolavirus

> print(dat)
   sequence.code  value.reported
1      FLILPQAKK         ≥ 20 µM
2      EAEKQLQQY         ≥ 20 µM

Let's switch to this sequence now.
KLINTLFHA yielded Kd of ≥ 20 µM

---

# TESTED SYSTEM: HLA-A*26:01
# ASSAY REMARKS: IEDB peptide-MHC binding, purified MHC/competitive/radioactivity; filed as Kd, often an IC50 or EC50 that approximates it; bounds were set here for any values at or beyond the usual limits of such assays
# CONDITION CONTEXT: source organism: Dengue virus 3 Singapore/8120/1995
pKd: −log10 of the molar value.
RESULT TYPE: pKd

EWITDFVGKT yielded pKd of ≤ 4.55

Entry source: the Immune Epitope Database (IEDB)
